test: Microsome stability study; format: in vitro ADME, mouse; conditions: CD-1, pH 7.4; male mouse liver microsomes 0.5 mg/mL, 2 μM, NADPH
value-type: microsomal CLint at 2 μM (µL/min/mg)

// below: answered compounds
compound	endpoint-value
NCc1ccc(S(=O)(=O)N2C[C@H](C(=O)N3CCOCC3)C[C@H](c3ccccc3)C2)s1 [Example 13B]	17.4
NCc1ccc(S(=O)(=O)N2C[C@H](C(=O)N3CCS(=O)(=O)CC3)C[C@@H](c3ccccc3)C2)s1.O=C(O)C(F)(F)F (racemic) [Example 75B, 2,2,2-trifluoroacetate]	37.3
CS(=O)(=O)N1CCN(C(=O)[C@H]2C[C@@H](c3ccccc3F)CN(S(=O)(=O)c3ccc(CN)s3)C2)CC1.O=C(O)C(F)(F)F (racemic) [Example 91, 2,2,2-trifluoroacetate]	56.5

(1) CS(=O)(=O)[C@H]1C[C@@H](S(=O)(=O)c2cccc(CN)c2)CN(c2ccccc2)C1 (racemic) [Example 23]
(2) NCc1ccnc(S(=O)(=O)N2C[C@@H](C(=O)N3CCS(=O)(=O)CC3)C[C@@H](C3CCCCC3)C2)c1.O=C(O)C(F)(F)F (racemic) [Example 146, 2,2,2-trifluoroacetate]
(3) CN(C)C(=O)N1C[C@@H](c2ccccc2)C[C@@H](S(=O)(=O)c2cccc(CN)c2)C1.O=C(O)C(F)(F)F (racemic) [Example 74, 2,2,2-trifluoroacetate]
Incoming: Descending sort on microsomal CLint at 2 μM required. // ordering of labels required in reply
Outgoing: 2, 3, 1

====

assay: PK study following IV and PO administration in male CD1 mice; format: in vivo, mouse; settings: mouse, PO, 50 mg/kg, plasma, mean of three mice
value-type: AUC(0-inf) (ng·h/mL)

(I) NCc1ccnc(S(=O)(=O)N2C[C@@H](C(=O)N3CCS(=O)(=O)CC3)C[C@@H](C3CCCCC3)C2)c1.O=C(O)C(F)(F)F (racemic) [Example 146]
(II) CN(C)C(=O)N1C[C@@H](c2ccccc2)C[C@@H](S(=O)(=O)c2cccc(CN)c2)C1.O=C(O)C(F)(F)F (racemic) [Example 74]
Incoming: Which of the two gives a bigger number for AUC(0-inf): I or II ? Selection: enter the item's label.
Outgoing: II
(II: 8860 ng·h/mL, I: 590 ng·h/mL)

====

Biological target: Recombinant human LOXL2 (lysyl oxidase like 2) (Homo sapiens, UniProt Q9Y4K0)
Sequence (Q9Y4K0 26-774): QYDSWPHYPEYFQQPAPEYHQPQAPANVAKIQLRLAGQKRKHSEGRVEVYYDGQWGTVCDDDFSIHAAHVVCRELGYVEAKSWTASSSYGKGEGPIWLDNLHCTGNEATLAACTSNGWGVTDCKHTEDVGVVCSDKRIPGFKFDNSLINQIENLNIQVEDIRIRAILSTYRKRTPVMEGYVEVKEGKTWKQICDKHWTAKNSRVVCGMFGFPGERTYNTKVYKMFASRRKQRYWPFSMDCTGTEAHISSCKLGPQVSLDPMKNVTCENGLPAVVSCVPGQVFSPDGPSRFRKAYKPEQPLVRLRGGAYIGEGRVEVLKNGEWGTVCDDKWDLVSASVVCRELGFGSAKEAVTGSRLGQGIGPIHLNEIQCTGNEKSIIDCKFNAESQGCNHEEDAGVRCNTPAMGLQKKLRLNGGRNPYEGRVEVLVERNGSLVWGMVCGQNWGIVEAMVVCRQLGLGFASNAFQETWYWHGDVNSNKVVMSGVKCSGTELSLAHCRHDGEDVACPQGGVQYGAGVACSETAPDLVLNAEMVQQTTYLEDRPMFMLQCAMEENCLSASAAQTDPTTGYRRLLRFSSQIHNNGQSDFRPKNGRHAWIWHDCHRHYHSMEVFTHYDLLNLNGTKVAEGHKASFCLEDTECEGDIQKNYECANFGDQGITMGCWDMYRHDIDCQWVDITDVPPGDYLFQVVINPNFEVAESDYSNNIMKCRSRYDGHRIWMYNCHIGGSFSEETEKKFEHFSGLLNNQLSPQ
Experiment: LOXL2 inhibition assay (fluorometric, cadaverine/Amplex Red/HRP)
Details: IC50 class; recombinant human LOXL2, cadaverine substrate; read-out: Activity Range LOXL2
IC50: recorded values

// below: answered molecules
molecule	tgt	endpoint-value
NCc1ccc(S(=O)(=O)N2C[C@@H](C(=O)N3CCCCC3)C[C@@H](c3ccccc3)C2)s1 (racemic) [Example 11, 2,2,2-trifluoroacetate]	Recombinant human LOXL2 (lysyl oxidase like 2) (Homo sapiens, UniProt Q9Y4K0)	≤ 500 nM
CN1CCN(C(=O)[C@H]2C[C@@H](c3ccccc3)CN(S(=O)(=O)c3ccc(CN)s3)C2)CC1 (racemic) [Example 17, 2,2,2-trifluoroacetate]	Recombinant human LOXL2 (lysyl oxidase like 2) (Homo sapiens, UniProt Q9Y4K0)	≤ 500 nM
CS(=O)(=O)N1C[C@H](Oc2cccc(CN)c2)C[C@H](c2ccccc2)C1 (racemic) [Example 25, 2,2,2-trifluoroacetate]	Recombinant human LOXL2 (lysyl oxidase like 2) (Homo sapiens, UniProt Q9Y4K0)	500 to 1000 nM
NCc1ccnc(S(=O)(=O)N2C[C@@H](C(=O)N3CCS(=O)(=O)CC3)C[C@@H](C3CCCCC3)C2)c1.O=C(O)C(F)(F)F (racemic) [Example 146, 2,2,2-trifluoroacetate]	Recombinant human LOXL2 (lysyl oxidase like 2) (Homo sapiens, UniProt Q9Y4K0)	≤ 500 nM
CS(=O)(=O)[C@@H]1C[C@@H](S(=O)(=O)c2cccc(CN)c2)CN(c2ccccc2)C1 (racemic)	Recombinant human LOXL2 (lysyl oxidase like 2) (Homo sapiens, UniProt Q9Y4K0)	≤ 500 nM

Incoming: Which measured IC50 value corresponds to CN(C)C(=O)[C@H]1C[C@@H](c2ccccc2)CN(S(=O)(=O)c2ccc(CN)s2)C1 (racemic) [Example 9, 2,2,2-trifluoroacetate] ?
Outgoing: ≤ 500 nM

Incoming: Which measured IC50 value corresponds to NCc1ccc(S(=O)(=O)N2C[C@@H](C(=O)N3CCNCC3)C[C@@H](c3ccccc3)C2)s1 (racemic) [Example 15, 2,2,2-trifluoroacetate] ?
Outgoing: ≤ 500 nM

Incoming: Which measured IC50 value corresponds to NCc1cccc(S(=O)(=O)N2C[C@@H](C(=O)N3CCS(=O)(=O)CC3)C[C@@H](c3ccccc3)C2)c1 (racemic) [Example 77, 2,2,2-trifluoroacetate] ?
Outgoing: 1000 to 30000 nM

Incoming: Which measured IC50 value corresponds to NCc1cccc(S(=O)(=O)N2C[C@H](C(=O)N3CCS(=O)(=O)CC3)C[C@@H](c3ccccc3)C2)n1 (racemic) [Example 115T, 2,2,2-trifluoroacetate] ?
Outgoing: 1000 to 30000 nM

Incoming: Which measured IC50 value corresponds to NCc1cccc(S(=O)(=O)[C@H]2C[C@H](C(=O)N3CCOCC3)CN(C3CCCCC3)C2)c1 (racemic) [Example 142T, 2,2,2-trifluoroacetate] ?
Outgoing: ≤ 500 nM

Incoming: Which measured IC50 value corresponds to CS(=O)(=O)N1C[C@@H](c2ccccc2)C[C@@H](S(=O)(=O)c2ccc(CN)cc2)C1 (racemic) [Example 26, 2,2,2-trifluoroacetate] ?
Outgoing: ≤ 500 nM

Incoming: Which measured IC50 value corresponds to CN(C)C(=O)[C@H]1C[C@@H](C2CCCCC2)CN(S(=O)(=O)c2cc(CN)ccn2)C1 (racemic) [Example 144, 2,2,2-trifluoroacetate] ?
Outgoing: ≤ 500 nM

Reference source: patent US20230310445A1
